Target: T1, hPRLR.mmh (soluble monomeric human PRLR) (human)
T1 construct: soluble monomeric PRLR protein
T1 chain: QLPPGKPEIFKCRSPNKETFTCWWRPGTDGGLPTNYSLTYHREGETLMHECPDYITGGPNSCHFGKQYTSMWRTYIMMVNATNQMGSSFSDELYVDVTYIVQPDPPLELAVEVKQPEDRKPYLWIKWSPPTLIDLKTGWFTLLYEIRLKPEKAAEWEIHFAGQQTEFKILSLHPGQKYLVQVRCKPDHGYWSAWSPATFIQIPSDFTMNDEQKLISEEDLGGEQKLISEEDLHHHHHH
Test: SPR (Biacore), antibody capture, 37 C
Recorded T 1/2 for the following binders

# Binder, T 1/2 [min]
measured = [
    ("H1H6793P (antibody, human IgG1, V domains shown, human IgG1 Fc (H1H)) VH: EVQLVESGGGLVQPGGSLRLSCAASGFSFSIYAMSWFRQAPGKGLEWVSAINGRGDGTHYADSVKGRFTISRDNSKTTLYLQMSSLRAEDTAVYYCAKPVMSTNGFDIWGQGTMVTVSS VL: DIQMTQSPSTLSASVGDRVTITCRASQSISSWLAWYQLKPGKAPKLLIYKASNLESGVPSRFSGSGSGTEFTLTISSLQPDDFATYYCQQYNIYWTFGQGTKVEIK", 11),
    ("H1H6966N (antibody, human IgG1, V domains shown, also called H2M6966N) VH: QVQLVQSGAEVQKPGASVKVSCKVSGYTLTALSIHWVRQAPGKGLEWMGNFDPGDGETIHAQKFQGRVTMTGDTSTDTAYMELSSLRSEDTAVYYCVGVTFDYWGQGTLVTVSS VL: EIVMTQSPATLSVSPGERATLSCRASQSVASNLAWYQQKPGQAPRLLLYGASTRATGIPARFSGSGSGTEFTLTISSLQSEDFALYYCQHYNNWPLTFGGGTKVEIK", 12),
    ("H1H6960N (antibody, human IgG1, V domains shown, also called H2M6960N) VH: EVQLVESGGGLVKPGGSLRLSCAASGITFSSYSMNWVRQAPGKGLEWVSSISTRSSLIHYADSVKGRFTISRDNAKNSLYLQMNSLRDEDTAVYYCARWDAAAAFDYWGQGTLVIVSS VL: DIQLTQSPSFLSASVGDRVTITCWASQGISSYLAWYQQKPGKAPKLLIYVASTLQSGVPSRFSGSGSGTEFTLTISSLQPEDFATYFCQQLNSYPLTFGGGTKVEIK", 5.8),
]
